I'd appreciate it if you could supply Bliss excess values for the items below.
- System: ES6 (Ewing's Sarcoma);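 note: after 72 h of two-drug dosing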
- Experiment Notes: Bliss excess, mean over the matrix (fraction); higher = more synergy
I only need the number, thanks.

input: Fill in the blank: the reported Bliss excess of CS(=O)(=O)CCNCc1ccc(-c2ccc3ncnc(Nc4ccc(OCc5cccc(F)c5)c(Cl)c4)c3c2)o1 [Lapatinib] + Cn1cnc2c(F)c(Nc3ccc(Br)cc3Cl)c(C(=O)NOCCO)cc21 [Selumetinib] (first compound max 10 µM, 7x7, partner max 10 µM) is ____.
output: -0.0159

input: Name the reported Bliss excess value associated with the molecule CCN(CCO)CCCOc1ccc2c(Nc3cc(CC(=O)Nc4cccc(F)c4)[nH]n3)ncnc2c1 [AZD2811] + C=CCn1c(=O)c2cnc(Nc3ccc(N4CCN(C)CC4)cc3)nc2n1-c1cccc(C(C)(C)O)n1 [AZD1775] (first compound max 1 µM, partner max 1 µM)
output: -0.0792

input: Any idea what Bliss excess was measured for COc1cccc(OCCCN)c1-c1cc(Nc2cnc(C#N)cn2)n[nH]1 [Prexasertib] + O=C(c1cc(Cc2n[nH]c(=O)c3ccccc23)ccc1F)N1CCN(C(=O)C2CC2)CC1 [Olaparib] (first compound max 1 µM, 7x7, partner max 10 µM) ?
output: 0.0253

input: What value of measured Bliss excess is listed for Cc1c2c(nn1C)CSCc1cc(n(C)n1)CSc1cc(c3ccccc3c1)OCCCc1c(C(=O)O)n(C)c3c-2c(Cl)ccc13 [AZD5991] + CN(C)CCCOc1ccc(-c2ccc3ncc4c(c3c2)n(C2CCOCC2)c(=O)n4C)cn1 [AZD0156] (first compound max 1 µM, 7x7, partner max 1 µM) ?
output: -0.0113

* * *

- Tested on: MDA-MB-415 (Breast Carcinoma)
- Experiment Notes: combination Emax (second highest fraction inhibited in the dose matrix, 72 h); higher = more inhibition; extreme values may be limits of the assay
What combination Emax was measured for each of the following?
Enter the number alone.

input: So what's the measured combination Emax for this one? Cc1nc(-c2cn3c(n2)-c2ccc(-c4cnn(C(C)(C)C(N)=O)c4)cc2OCC3)n(C(C)C)n1 [Taselisib] + O=C(Nc1ccc2[nH]nc(-c3ccncc3)c2c1)[C@@H]1CCN(CC(=O)N2CCN(c3ccc(-c4ncccn4)cc3)CC2)C1 [SCH772984] (first compound max 10 µM, 7x7, partner max 5 µM)
output: 0.846

input: Requested field: combination Emax. Item: CCc1c2c(nc3ccc(O)cc13)-c1cc3c(c(=O)n1C2)COC(=O)[C@]3(O)CC [SN-38] + CN(C)CCCOc1ccc(-c2ccc3ncc4c(c3c2)n(C2CCOCC2)c(=O)n4C)cn1 [AZD0156] (first compound max 0.3 µM, 7x7, partner max 1 µM)
output: 0.294

input: // combination Emax lookup, key: CC1(C)CCC(CN2CCN(c3ccc(C(=O)NS(=O)(=O)c4ccc(NCC5CCOCC5)c([N+](=O)[O-])c4)c(Oc4cnc5[nH]ccc5c4)c3)CC2)=C(c2ccc(Cl)cc2)C1 [Venetoclax] + C[C@@H]1COCCN1C2=NC(=NC(=C2)C3(CC3)[S@](=N)(=O)C)C4=C5C=CNC5=NC=C4 [AZD6738] (first compound max 1 µM, 7x7, partner max 10 µM)
output: 0.509

input: Item CN(C)CCCOc1ccc(-c2ccc3ncc4c(c3c2)n(C2CCOCC2)c(=O)n4C)cn1 [AZD0156] + C=CCn1c(=O)c2cnc(Nc3ccc(N4CCN(C)CC4)cc3)nc2n1-c1cccc(C(C)(C)O)n1 [AZD1775] (first compound max 1 µM, partner max 1 µM) has what recorded combination Emax?
output: 0.177
